Just for reference, paper PMC8949525 is where these values come from.

G (growth ratio) reference
- Tested on: S. typhimurium TA1535/pSK1002
- condition: 2AA 5 mg/L, +S9; genistein 10 μM and/or mineral added (Table 5); 2AA line = genotoxin alone

| compound | testedTarget | G (growth ratio) |
| --- | --- | --- |
| Nc1ccc2cc3ccccc3cc2c1 [2AA, 2-aminoanthracene, reference compound] | S. typhimurium TA1535/pSK1002 | 1.02 |
| O=[Se](=O)([O-])[O-].[Na+].[Na+] [Se, sodium selenate] | S. typhimurium TA1535/pSK1002 | 1.17 |
| O=c1c(-c2ccc(O)cc2)coc2cc(O)cc(O)c12 | S. typhimurium TA1535/pSK1002 | 1.21 |
| [Ca+2].[Cl-].[Cl-] [Ca, calcium chloride] | S. typhimurium TA1535/pSK1002 | 1.19 |

* * *

G (growth ratio) reference
- System: S. typhimurium TA1535/pSK1002
- condition: 4NQO […], −S9; genistein 10 μM and/or mineral added (Table 2); NQO line = genotoxin alone
- Protocol: The umu-test detects the induction of bacterial DNA-damage response, the SOS system, in the strain S. typhimurium TA1535/pSK1002. The test strain carries pSK1002 plasmid, which contains the fusion of umuC, encoding one of SOS response proteins, and lacZ genes. […] In the present study, the umu-test was performed in the micro-plate format according to the ISO guideline. The β-galactosidase activity was determined by the degree of ONPG cleavage measured as sample absorbance at 420 nm. […]

| compound | G (growth ratio) |
| --- | --- |
| O=[Se](=O)([O-])[O-].[Na+].[Na+] [Se, sodium selenate] | 1.11 |
| O=S(=O)([O-])[O-].[Cu+2] [Cu, copper(II)/cupric sulphate] | 1.00 |
| O=c1c(-c2ccc(O)cc2)coc2cc(O)cc(O)c12 | 1.12 |
| [Ca+2].[Cl-].[Cl-] [Ca, calcium chloride] | 1.11 |

* * *

- Test system: S. typhimurium TA1535/pSK1002
- condition: −S9; isoflavone 10 μM, minerals Zn 0.5, Se 0.03, Cu 0.5, Fe 1.5, Ca 40 μg/mL
G (growth ratio) reference

| compound | G (growth ratio) |
| --- | --- |
| O=c1c(-c2ccc(O)cc2)coc2cc(O)cc(O)c12 | 1.28 |
| Oc1ccc([C@H]2COc3cc(O)ccc3C2)cc1 | 1.18 |
| O=[Se](=O)([O-])[O-].[Na+].[Na+] [Se, sodium selenate] | 1.14 |
| [Ca+2].[Cl-].[Cl-] [Ca, calcium chloride] | 1.11 |
